experiment: Vapor pressure of fragrance ingredients
In this section, each of the compounds is paired with its reported Vapor Pressure.
Your answer should be a plain number; it is taken to be in mm hg.

Some solved entries appear below for comparison.
CC1(O)CCC2C(=CCCC2(C)C)C1 (stereo not drawn) [Ambrinol] : 0.0005
CC(=O)OC(C)(C)C1CC=C(C)CC1 (stereo not drawn) [Terpinyl Acetate] : 0.058
CCCCCCCCCCCC=O [Aldehyde C-12 Lauric] : 0.034
O=Cc1ccc2c(c1)OCO2 [Heliotropine] : 0.003

Sample CC1C(C)(C)C2=C(C(=O)CCC2)C1(C)C (stereo not drawn) [Cashmeran] ; Vapor Pressure observed: 0.003

Entry O=C1CCCCCCCCCCCC(=O)OCCO1 [Ethylene Brassylate] — recorded Vapor Pressure = 0

The measured Vapor Pressure associated with CC(=O)C(C)=CC1C(C)=CCCC1(C)C (stereo not drawn) [Methyl Ionone Gamma] reads 0.006

Briefly, Vapor Pressure measured for CC12CCC(CC1)C(C)(C)O2 [Eucalyptol] : 1.9

Value of measured Vapor Pressure for the entry CC1=CC(C)C(C=O)CC1 (stereo not drawn) [Cyclal C/Triplal] : 0.578

The recorded Vapor Pressure for entry CC(C)CCCC(C)(C)O [Dimetol] equals 0.33

Measured Vapor Pressure of CCCCCCCCCC(C)C=O (stereo not drawn) [Aldehyde C-12 MNA] : 4.834

Sample COc1ccc(COC(C)=O)cc1 [Anisyl Acetate] ; Vapor Pressure observed: 0.021
